System: Rattus norvegicus
Assay: Evaluated in rat striatum for the effect on DOPAC release and metabolism in brain dialysis model after administration of 50 umol / kg subcutaneously
Format: functional
Parameters: unit not given beside the values

| compound | Activity |
| --- | --- |
| CCCN1CCCC(c2cccc(O)c2)C1 (single isomer, unassigned; (+)) | 42 |
| CCCN1CCCC(c2cccc(C#N)c2)C1 (single isomer, unassigned; (-)) | 299 |
| CCCN[C@@H]1CCc2c(OC)cccc2[C@@H]1C | 315 |
| CCCN1CCC[C@@H](c2cccc(OS(=O)(=O)C(F)(F)F)c2)C1 | 162 |
| CCCN1CCCC(c2cccc(O)c2)C1 (single isomer, unassigned; (-)) | 70 |
| CCCN(CCC)[C@@H]1CCc2c(OC)cccc2[C@@H]1C | 307 |

---

Tested on: Rattus norvegicus
Test: Evaluated in rat striatum for the effect on dopamine release and metabolism in brain dialysis model after administration of 50 umol / kg subcutaneously
Type: functional
Set-up: unit not given beside the values

| compound | Activity |
| --- | --- |
| CCCN1CCC[C@@H](c2cccc(OS(=O)(=O)C(F)(F)F)c2)C1 | 208 |
| CCCN1CCCC(c2cccc(O)c2)C1 (single isomer, unassigned; (-)) | 700 |
| CCCN1CCCC(c2cccc(C#N)c2)C1 (single isomer, unassigned; (-)) | 295 |
| CCCN[C@@H]1CCc2c(OC)cccc2[C@@H]1C | 285 |
| CCCN(CCC)[C@@H]1CCc2c(OC)cccc2[C@@H]1C | 209 |
| CCCN1CCCC(c2cccc(O)c2)C1 (single isomer, unassigned; (+)) | 28 |

---

pKi: −log10 of the molar value.
pKi, D(4) dopamine receptor (Homo sapiens, UniProt P21917), per-entry values.

| molecule | reading_qualifier | pKi |
| --- | --- | --- |
| CCCN(CCC)[C@@H]1CCc2c(OC)cccc2[C@@H]1C | = | 7.32 |
| CCCN[C@@H]1CCc2c(OC)cccc2[C@@H]1C | = | 6.93 |
| CCCN1CCCC(c2cccc(C#N)c2)C1 (single isomer, unassigned; (+)) | < | 6.03 |
| CCCN1CCCC(c2cccc(O)c2)C1 (single isomer, unassigned; (-)) | = | 6.89 |
| CCCN1CCCC(c2cccc(O)c2)C1 (single isomer, unassigned; (+)) | < | 6.00 |

---

Reported values of Ki for individual entries
Biological target: D(2) dopamine receptor (Bos taurus, UniProt P20288)
Sequence (P20288 whole entry): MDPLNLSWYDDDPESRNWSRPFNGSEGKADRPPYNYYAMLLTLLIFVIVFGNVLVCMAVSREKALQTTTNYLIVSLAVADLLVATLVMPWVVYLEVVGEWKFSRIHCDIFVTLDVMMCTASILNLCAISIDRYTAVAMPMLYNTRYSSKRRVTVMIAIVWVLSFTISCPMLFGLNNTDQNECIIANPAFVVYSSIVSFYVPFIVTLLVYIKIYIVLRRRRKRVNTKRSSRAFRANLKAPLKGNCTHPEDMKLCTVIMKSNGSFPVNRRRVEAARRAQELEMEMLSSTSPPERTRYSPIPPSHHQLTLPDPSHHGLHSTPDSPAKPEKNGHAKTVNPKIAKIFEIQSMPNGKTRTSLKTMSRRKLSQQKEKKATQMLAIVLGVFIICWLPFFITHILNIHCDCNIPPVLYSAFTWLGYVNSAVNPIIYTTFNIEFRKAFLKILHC
Test: Binding towards Dopamine receptor D2 expressed in CHO-K1 cells using [3H]U-86170
Assay type: cell-based

| compound | unit_annotation | Ki |
| --- | --- | --- |
| CCCN1CCCC(c2cccc(O)c2)C1 (single isomer, unassigned; (-)) | nM | 8.5 |
| CCCN[C@@H]1CCc2c(OC)cccc2[C@@H]1C | nM | 145 |
| CCCN1CCCC(c2cccc(C#N)c2)C1 (single isomer, unassigned; (-)) | nM | 119 |
| CCCN(CCC)[C@@H]1CCc2c(OC)cccc2[C@@H]1C | nM | 13 |
| CCCN1CCCC(c2cccc(O)c2)C1 (single isomer, unassigned; (+)) | nM | 32 |
| CCCN1CCCC(c2cccc(C#N)c2)C1 (single isomer, unassigned; (+)) | nM | 1720 |

Data origin: ChEMBL document CHEMBL1126862
